Reported pKi is given for each of the following compounds.
target: human GlyT1c transporter (Homo sapiens); construct: expressed in transfected cells; host or cells: CHO cells (recombinant; line hGlyT1c_5_CHO is named for the uptake assay); experiment: Radioligand binding assay using recombinant CHO cell membranes expressing human GlyT1; details: radioligand binding to human GlyT1c transporter-expressing membranes
Sequence (P48067 whole entry): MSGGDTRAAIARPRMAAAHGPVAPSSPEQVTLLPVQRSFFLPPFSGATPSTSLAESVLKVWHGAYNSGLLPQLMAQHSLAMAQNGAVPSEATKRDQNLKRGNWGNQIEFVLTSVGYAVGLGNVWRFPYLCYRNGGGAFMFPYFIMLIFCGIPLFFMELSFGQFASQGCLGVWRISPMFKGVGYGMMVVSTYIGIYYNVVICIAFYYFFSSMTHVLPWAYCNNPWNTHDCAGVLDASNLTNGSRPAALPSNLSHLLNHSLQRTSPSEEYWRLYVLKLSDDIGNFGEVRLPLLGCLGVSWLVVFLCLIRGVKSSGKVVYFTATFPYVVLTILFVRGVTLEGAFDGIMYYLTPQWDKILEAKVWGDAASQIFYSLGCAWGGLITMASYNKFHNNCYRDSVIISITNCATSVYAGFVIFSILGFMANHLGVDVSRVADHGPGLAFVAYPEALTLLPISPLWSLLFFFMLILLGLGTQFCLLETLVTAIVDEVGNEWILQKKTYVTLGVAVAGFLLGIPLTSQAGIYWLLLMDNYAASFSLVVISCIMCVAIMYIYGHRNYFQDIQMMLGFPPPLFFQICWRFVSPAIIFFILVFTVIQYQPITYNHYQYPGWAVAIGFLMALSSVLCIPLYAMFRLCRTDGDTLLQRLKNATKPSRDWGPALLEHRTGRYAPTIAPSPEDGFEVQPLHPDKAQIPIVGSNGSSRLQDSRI
pKi: −log10 of the molar value.

Consider the reported pKi for these compounds:
INSERT INTO results (compound, recorded_measurement) VALUES
  ('Cn1cnc(S(=O)(=O)N2C[C@@H](OCc3cccc(F)c3)[C@H](c3ccc(F)cc3)C2)c1 (relative stereo)', '≥ 6.00'),
  ('Cn1cnc(S(=O)(=O)N2C[C@@H](Nc3cccc(C#N)c3F)[C@H](c3ccccc3)C2)c1 (relative stereo)', '≥ 6.00'),
  ('CCCNCCO[C@@H]1CN(S(=O)(=O)c2cn(C)cn2)C[C@H]1c1ccc(F)cc1 (relative stereo)', '≥ 6.00'),
  ('Cn1cnc(S(=O)(=O)N2C[C@H](NCC3CNC(C(F)(F)F)CN3)[C@@H](c3ccccc3)C2)c1 (stereo partly drawn)', '≥ 5.00');

# lookup: pKi of Cn1cnc(S(=O)(=O)N2C[C@@H](NCc3ccc(Cl)cc3Cl)[C@H](c3ccc(F)cc3)C2)c1 (relative stereo)
≥ 5.00

Also check Cc1ccc(-c2ncc(CN[C@H]3CN(S(=O)(=O)c4cn(C)cn4)C[C@@H]3c3ccccc3)s2)cc1
≥ 6.00

Also check Cc1cc(N[C@@H]2CN(S(=O)(=O)c3cn(C)cn3)C[C@H]2[C@@H]2CCCOC2)ccc1F (mixture of isomers)
≥ 6.00

Also check Cn1cnc(S(=O)(=O)N2C[C@@H](C(=O)Nc3ccc(Cl)c(OC(F)(F)F)c3)[C@H](c3ccc(F)cc3)C2)c1 (relative stereo)
≥ 6.00

Also check Cn1cnc(S(=O)(=O)N2C[C@H](Nc3cc(OCC(F)(F)F)c(F)cn3)[C@@H](c3ccccc3)C2)c1
≥ 8.00

Also check Cn1cnc(S(=O)(=O)N2C[C@@H](NCc3ccc(C(F)(F)F)cc3Cl)[C@H](c3ccccc3F)C2)c1 (relative stereo)
≥ 7.00

Also check Cc1ncsc1CN[C@H]1CN(S(=O)(=O)c2cn(C)cn2)C[C@@H]1c1ccccc1
≥ 5.00

Also check Cc1cc(N[C@@H]2CN(S(=O)(=O)c3cn(C)cn3)C[C@H]2c2ncccc2F)ncc1F (relative stereo)
≥ 6.00

Also check Cn1cnc(S(=O)(=O)N2C[C@H](NCc3cccnc3-c3ccc(F)cc3)[C@@H](c3ccccc3)C2)c1
≥ 5.00

Also check NC(=O)c1ccccc1S(=O)(=O)N1C[C@@H](Nc2cc(C(F)(F)F)ccn2)[C@H](c2ccccc2)C1 (relative stereo)
≥ 5.00

Also check Cn1cnc(S(=O)(=O)N2C[C@@H](Nc3cccc(C(F)(F)F)n3)[C@H](c3ccccc3F)C2)c1 (relative stereo)
≥ 5.00

Also check Cn1cnc(S(=O)(=O)N2C[C@@H](NC(=O)c3cc(Cl)cc(Cl)c3)[C@H](c3ccccc3)C2)c1 (relative stereo)
≥ 5.00

Also check COc1ccc(N[C@@H]2CN(S(=O)(=O)c3cn(C)cn3)C[C@H]2c2ccccc2)cc1C#N (relative stereo)
≥ 5.00

Also check Cn1cnc(S(=O)(=O)N2C[C@@H](CNc3ccc(C(F)(F)F)cc3Cl)[C@H](c3ccc(F)cc3)C2)c1 (relative stereo)
≥ 7.00
